# EC50 listing for each entry below
Target Under Test: GPR120L (Long Isoform) receptor (Homo sapiens)
Construct: similar procedure in HEK 293 cells
Sequence (Q5NUL3 1-377 isoform Q5NUL3-1): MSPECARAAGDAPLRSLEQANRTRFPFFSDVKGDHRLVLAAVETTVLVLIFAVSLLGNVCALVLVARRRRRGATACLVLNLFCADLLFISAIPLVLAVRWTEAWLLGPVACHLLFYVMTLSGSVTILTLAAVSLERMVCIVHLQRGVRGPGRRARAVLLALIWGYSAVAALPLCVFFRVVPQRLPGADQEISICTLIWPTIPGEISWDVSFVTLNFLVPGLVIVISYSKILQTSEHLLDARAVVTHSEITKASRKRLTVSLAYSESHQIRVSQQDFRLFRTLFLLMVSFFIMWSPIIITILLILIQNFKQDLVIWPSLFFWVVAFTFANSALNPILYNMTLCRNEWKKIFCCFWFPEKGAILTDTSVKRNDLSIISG
Assay: Beta (β) arrestin 2 Interaction Assay (β-galactosidase enzyme fragment complementation)
Test Context: β-arrestin recruitment; CHO-K1 cells stably expressing GPR120L, similar procedure for HEK 293 cells; 2 hours incubation
Measure: EC50

Smiles Record | Measured Value
COc1ccc(-c2ccc(F)cc2CC(F)(F)c2ccc(CCCC(=O)O)cc2)cn1 | 50 to 500 nM
Cc1ccc(-c2ccc(F)cc2CC(F)(F)c2ccc(CCCC(=O)O)cc2)s1 | 50 to 500 nM
N#CC1(c2ccc(-c3ccc(F)cc3C#Cc3ccc(CCCC(=O)O)cc3)s2)CC1 | 500 to 5000 nM
CC1(c2ccc(-c3ccc(F)cc3CC(F)(F)c3ccc(CCCC(=O)O)cc3)s2)CC1 | 500 to 5000 nM
O=C(O)CCCc1ccc(CCc2cc(F)ccc2-c2nc3c(s2)CCCC3)cc1 | 50 to 500 nM
O=C(O)CCCc1ccc(C#Cc2cc(F)ccc2-c2ccc(C3CC3)s2)cc1 | 50 to 500 nM
Cc1ccc(-c2ccc(F)cc2C#Cc2ccc(CCCC(=O)O)nc2)s1 | 5000 to 10000 nM
CC1(c2ccc(-c3ccc(F)cc3C=Cc3ccc(CCCC(=O)O)cc3)s2)CC1 | 50 to 500 nM
